System: Micrococcus luteus
Experiment: Antibacterial activity against Micrococcus luteus AGD1
Assay type: functional
readout-name: MIC

Examples with their reported MIC follow.
smiles-representation | MIC
CCOC(=O)c1c(C(=O)OCC)c2c3ccccc3ccn2c1C(=O)c1ccccc1 | > 500 µg/mL
COC(=O)c1cc2ccc3ccccc3n2c1C(=O)c1ccccc1 | > 500 µg/mL
COC(=O)c1cc2ccccn2c1C(=O)c1ccccc1 | > 500 µg/mL
CCOC(=O)c1c(C(=O)OCC)c2ccc3ccccc3n2c1C(=O)c1ccccc1 | 500 µg/mL

Query MIC on Micrococcus luteus for O=C(c1ccccc1)c1c(-c2ccccc2)cc2c3ccccc3ccn12
500 µg/mL

----------
Tested on: Vibrio cholerae
Test: Antibacterial activity against Vibrio cholerae isolate 7201
Format: functional
readout-name: MIC

Example compounds with recorded MIC:
smiles-representation | MIC
COC(=O)c1c(C(=O)OC)c2ccccn2c1C(=O)c1ccccc1 | > 500 µg/mL
CCOC(=O)c1cc2ccc3ccccc3n2c1C(=O)c1ccccc1 | > 500 µg/mL
COC(=O)c1c(C(=O)OC)c2ccc3ccccc3n2c1C(=O)c1ccccc1 | 500 µg/mL
COC(=O)c1cc2ccccn2c1C(=O)c1ccccc1 | > 500 µg/mL
CCOC(=O)c1c(C(=O)OCC)c2ccccn2c1C(=O)c1ccccc1 | > 500 µg/mL

Now for another entry.
// map N#Cc1cc2ccccn2c1C(=O)c1ccccc1 to recorded MIC (system: Vibrio cholerae)
16 µg/mL

----------
Test system: Shigella flexneri
Test: Antibacterial activity against Shigella flexneri DN13 at 1 to 1000 ug/ml after overnight incubation by disc diffusion method
Format: functional
The source made the active and inactive calls. The calls are words filed in the database; no cut-off is given here.
readout-name: diameter of the inhibition zone (DIZ)

The examples below pair each entry with its known result.
smiles-representation | readout-name | result
N#Cc1cc2ccccn2c1C(=O)c1ccccc1 | diameter of the inhibition zone (DIZ) | inactive
O=C(c1ccccc1)c1c(-c2ccccc2)cc2c3ccccc3ccn12 | diameter of the inhibition zone (DIZ) | inactive
CCOC(=O)c1cc(C(=O)c2ccccc2)n2ccc3ccccc3c12 | diameter of the inhibition zone (DIZ) | 7.1 mm
CCOC(=O)c1c(C(=O)OCC)c2ccc3ccccc3n2c1C(=O)c1ccccc1 | diameter of the inhibition zone (DIZ) | inactive
COC(=O)c1c(C(=O)OC)c2ccc3ccccc3n2c1C(=O)c1ccccc1 | diameter of the inhibition zone (DIZ) | inactive

Okay, next one:
Short answer please: diameter of the inhibition zone (DIZ), Shigella flexneri, entry N#Cc1cc(C(=O)c2ccccc2)n2ccc3ccccc3c12
inactive

----------
Tested on: Vibrio cholerae
Experiment: Antibacterial activity against Vibrio cholerae isolate 7201
Assay type: functional
readout-name: MIC (µg/mL)
Respond with the bare value in µg/mL.

smiles-representation | MIC / µg/mL
COC(=O)c1cc(C(=O)c2ccccc2)n2ccc3ccccc3c12 | 256

# evaluate next
Param item = COC(=O)c1c(C(=O)OC)c2c3ccccc3ccn2c1C(=O)c1ccccc1 ; retrieve measured MIC.
500

----------
System: Enterococcus faecalis
Assay: Antibacterial activity against Streptococcus faecalis isolate 29212
Type: functional
readout-name: MIC

State the recorded MIC for this entry: CCOC(=O)c1c(C(=O)OCC)c2ccccn2c1C(=O)c1ccccc1
> 500 µg/mL

Then what about the compound COC(=O)c1c(C(=O)OC)c2ccccn2c1C(=O)c1ccccc1 ?
> 500 µg/mL

Likewise for COC(=O)c1cc2ccc3ccccc3n2c1C(=O)c1ccccc1 ?
> 500 µg/mL

Ok, now N#Cc1cc(C(=O)c2ccccc2)n2ccc3ccccc3c12
> 500 µg/mL

And for COC(=O)c1c(C(=O)OC)c2c3ccccc3ccn2c1C(=O)c1ccccc1 ?
> 500 µg/mL

What would you report for CCOC(=O)c1c(C(=O)OCC)c2c3ccccc3ccn2c1C(=O)c1ccccc1 ?
> 500 µg/mL

Do the same for CCOC(=O)c1cc2ccccn2c1C(=O)c1ccccc1 please
> 500 µg/mL

And what about the compound COC(=O)c1cc2ccccn2c1C(=O)c1ccccc1 ?
> 500 µg/mL

Then CCOC(=O)c1cc2ccc3ccccc3n2c1C(=O)c1ccccc1 ?
> 500 µg/mL
